# TARGET_DESC: UniProt:A3EZJ3
# Sequence (A3EZJ3 whole entry): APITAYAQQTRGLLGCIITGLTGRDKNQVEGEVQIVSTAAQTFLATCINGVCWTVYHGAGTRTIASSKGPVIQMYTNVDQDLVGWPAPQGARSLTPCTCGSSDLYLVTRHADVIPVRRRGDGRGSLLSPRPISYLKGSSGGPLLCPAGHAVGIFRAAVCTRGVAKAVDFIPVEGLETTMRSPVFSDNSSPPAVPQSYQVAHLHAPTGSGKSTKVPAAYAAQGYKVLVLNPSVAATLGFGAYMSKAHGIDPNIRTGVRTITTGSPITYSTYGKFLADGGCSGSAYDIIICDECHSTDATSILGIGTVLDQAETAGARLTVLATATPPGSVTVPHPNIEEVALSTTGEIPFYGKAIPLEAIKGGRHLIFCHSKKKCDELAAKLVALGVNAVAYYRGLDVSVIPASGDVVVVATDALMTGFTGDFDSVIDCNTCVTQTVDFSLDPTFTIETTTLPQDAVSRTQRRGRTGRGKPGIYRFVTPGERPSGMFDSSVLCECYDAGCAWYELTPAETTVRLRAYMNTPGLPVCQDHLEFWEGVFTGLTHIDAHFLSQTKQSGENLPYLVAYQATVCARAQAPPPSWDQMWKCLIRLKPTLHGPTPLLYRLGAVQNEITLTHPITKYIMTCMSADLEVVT
pKi: −log10 of the molar value.
Label Satisfied when pKi is at or above 7; anything below gets Not satisfied.

CCCC(NC(=O)[C@@H]1C[C@@H]2CN1C(=O)[C@H](C(C)(C)C)NC(=O)Oc1cccc(c1)OCCCO2)C(=O)C(=O)NCC(=O)N[C@H](C(=O)N(C)C)c1ccccc1 (stereo partly drawn) : Not satisfied
CCCC(NC(=O)[C@@H]1C[C@@H]2CN1C(=O)[C@H](C1CCCCC1)NC(=O)Cc1ccc(C)c(c1)OCCCO2)C(=O)C(=O)NCC(=O)N[C@H](C(=O)N(C)C)c1ccccc1 (stereo partly drawn) : Satisfied
CCCC(NC(=O)[C@@H]1C[C@@H]2CN1C(=O)[C@H](C1CCCCC1)NC(=O)Cc1cc(C)cc(c1)OCCCO2)C(=O)C(=O)NCC(=O)N[C@H](C(=O)N(C)C)c1ccccc1 (stereo partly drawn) : Satisfied
CCCC(NC(=O)[C@@H]1C[C@@H]2CN1C(=O)[C@H](C1CCCC(C(=O)O)C1)NC(=O)Cc1cccc(c1)OCCCO2)C(=O)C(=O)NCC(=O)N[C@H](C(=O)N(C)C)c1ccccc1 (stereo partly drawn) : Satisfied
CCCC(NC(=O)[C@@H]1C[C@@H]2CN1C(=O)[C@H](C1CCCCC1)NC(=O)Cc1cc(OC)cc(c1)OCCCO2)C(=O)C(=O)NCC(=O)N[C@H](C(=O)N(C)C)c1ccccc1 (stereo partly drawn) : Satisfied
CCCC(NC(=O)[C@@H]1C[C@@H]2CN1C(=O)[C@H](C1CCCCC1)NC(=O)Nc1cccc(c1)OCCCO2)C(=O)C(=O)NCC(=O)N[C@H](C(=O)N(C)C)c1ccccc1 (stereo partly drawn) : Not satisfied

Next compound, please.
(Q) Hello, I need to know if CCCC(NC(=O)[C@@H]1C[C@@H]2CN1C(=O)[C@H]([C@H]1CC[C@H](C(=O)O)CC1)NC(=O)Cc1cccc(c1)OCCCO2)C(=O)C(=O)NCC(=O)N[C@H](C(=O)N(C)C)c1ccccc1 (stereo partly drawn) has measured pKi not below 7. Thanks!
(A) Satisfied

FYI, the data here is from ChEMBL document CHEMBL1146185.
